Experiment: Cytotoxicity counterscreen for inhibitors of SARS-CoV-2 cell entry (AID 1645845); note: nearly all actives have a fitted effect of over 50% in size
Conditions: cell viability (SARS-CoV-2 entry assay cells); series mostly up to 57.1 µM
Results filed as inconclusive are left out. The source made the active and inactive calls. Calls come from the whole dose curve.
Outcome codes: 1 (yes) for active, 0 (no) for inactive

compound	class_name
CCCCCCCCCC(=O)OCCN1CCN(CC/C=C2\c3ccccc3Sc3ccc(C(F)(F)F)cc32)CC1	0 (no)
CC(C)(C)NC(=O)[C@H]1CC[C@H]2[C@@H]3CC=C4C=C(C(=O)O)CC[C@]4(C)[C@H]3CC[C@]12C	0 (no)
N#C/C(=C(/N)Sc1ccc(N)cc1)c1ccccc1C(F)(F)F	0 (no)
CCC(C)(C)OC(=O)N[C@@H](Cc1c[nH]c2ccccc12)C(=O)N[C@@H](CCSC)C(=O)N[C@@H](CC(=O)O)C(=O)N[C@@H](Cc1ccccc1)C(N)=O	0 (no)
Cc1ccc(NC(=O)c2ccc(CN3CCNCC3)cc2)cc1Nc1nccc(-c2cccnc2)n1	1 (yes)
O=P(O)(O)OC(CO)CO	0 (no)
Cn1nccc1Nc1nccc(-c2cc3c(s2)C(C)(C)N(CCN2CCOCC2)C3=O)n1	0 (no)
CC1(N)CCN(c2cnc(-c3cccc(Cl)c3Cl)c(N)n2)CC1	0 (no)
COc1cc2ncnc(Oc3cccc(NC(=O)Nc4cc(C(C)(C)C(F)(F)F)on4)c3)c2cc1OC	0 (no)
CC(C)[C@@H](CS(=O)(=O)C(C)C)N1C(=O)[C@@](C)(CC(=O)O)C[C@H](c2cccc(Cl)c2)[C@H]1c1ccc(Cl)cc1	0 (no)
CCCCC/C=C\C/C=C\C/C=C\CCCCC(=O)O	0 (no)
OC(CCN1CCCCC1)(c1ccccc1)C1CCCC1 (stereo unspecified)	0 (no)
CO[C@H]1/C=C\O[C@@]2(C)Oc3c(C)c(O)c4c(O)c(c5c(c4c3C2=O)=NC2(CCN(CC(C)C)CC2)N=5)NC(=O)/C(C)=C\C=C/[C@H](C)[C@H](O)[C@@H](C)[C@@H](O)[C@@H](C)[C@H](OC(C)=O)[C@@H]1C	0 (no)
O=C(O)CNC(=O)c1ncc(-c2cccc(Cl)c2)cc1O	0 (no)
CC(C)C(N)C(=O)OCC(CO)OCn1cnc2c(=O)[nH]c(N)nc21 (stereo unspecified)	0 (no)
C[C@H](NC(=O)CCC(F)(F)F)C(=O)N[C@@H]1C(=O)N(CCO)c2ncccc2-c2ccccc21	0 (no)
Cn1nnc(-c2ccc(-c3ccc(N4C[C@@H](CO)OC4=O)cc3F)cn2)n1	0 (no)
CC[C@H](NC(=O)[C@H](C)NC)C(=O)N1C[C@@H](O)C[C@H]1Cc1c(-c2[nH]c3cc(F)ccc3c2C[C@@H]2C[C@H](O)CN2C(=O)[C@H](CC)NC(=O)[C@H](C)NC)[nH]c2cc(F)ccc12	0 (no)
CN(C)C1CCN(C(=O)c2ccc(NC(=O)Nc3ccc(-c4nc(N5CCOCC5)nc(N5CCOCC5)n4)cc3)cc2)CC1	1 (yes)
CNC(C)CC1CCCC1 (stereo unspecified)	0 (no)
CC(C)[C@@H](C)/C=C/[C@@H](C)[C@H]1CC[C@H]2/C(=C/C=C3\C[C@@H](O)CC[C@@H]3C)CCC[C@]12C	0 (no)
Nc1nc(Nc2ccc3c(c2)CC[C@@H](N2CCCC2)CC3)nn1-c1cc2c(nn1)-c1ccccc1CCC2	0 (no)
C/C=C/C=C/C(=O)O	0 (no)
CN[C@@H](C)C(=O)N[C@H](C(=O)N1CCC[C@H]1C(=O)Nc1sc(-c2ncco2)nc1-c1ccccc1)C1CCCCC1	0 (no)
COc1cc(CNC(=O)CCCC/C=C/C(C)C)ccc1O	0 (no)
CCOC(=O)[C@H](CCc1ccccc1)N[C@H](C)C(=O)N1C2CCCCC2C[C@H]1C(=O)O (stereo partly specified)	0 (no)
